tested on: RARa:RXR (NR concentration 270 nM, RXRa partner concentration 90 nM); assay: PBM binding z-score (relative to random genomic background probes); higher = stronger binding; sequences stand for … in GC…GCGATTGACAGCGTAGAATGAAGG
PBM binding z-score reference
Kindly provide the number alone.

For orientation, consider the following solved cases.
{"sequenceContent": "TCTTGTAGATCAAGGGTTAAGAAAGCCGAAGCCT", "numericValue": 1.06}
{"sequenceContent": "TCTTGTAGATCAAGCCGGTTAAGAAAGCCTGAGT", "numericValue": 0.402}
{"sequenceContent": "CCTACTGGGCCATCAGGTCATTGACATCAACGTT", "numericValue": 2.15}

Lookup: Input `AGCATGAGGTTATACGTAGATCAGGGAAGAAAGT` , output reported PBM binding z-score.
Found: 1.38

Lookup: Input `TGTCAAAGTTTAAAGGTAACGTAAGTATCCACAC` , output reported PBM binding z-score.
Found: 2.12

---

test system: LXRa homodimer (NR concentration 270 nM); assay: PBM binding z-score (relative to random genomic background probes); higher = stronger binding; sequences stand for … in GC…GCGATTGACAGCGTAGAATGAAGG
outcomeMeasure: PBM binding z-score
Kindly provide the number alone.

For orientation, consider the following solved cases.
{"sequenceContent": "CCTGCTAGGTCATGGTCAGCTCATCTACAGTATG", "experimentalTarget": "LXRa homodimer (NR concentration 270 nM)", "PBM binding z-score": 0.179}
{"sequenceContent": "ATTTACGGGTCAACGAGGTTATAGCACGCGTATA", "experimentalTarget": "LXRa homodimer (NR concentration 270 nM)", "PBM binding z-score": 2.29}
{"sequenceContent": "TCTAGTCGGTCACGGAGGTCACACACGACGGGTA", "experimentalTarget": "LXRa homodimer (NR concentration 270 nM)", "PBM binding z-score": 4.58}
{"sequenceContent": "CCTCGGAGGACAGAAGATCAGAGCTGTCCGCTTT", "experimentalTarget": "LXRa homodimer (NR concentration 270 nM)", "PBM binding z-score": -0.602}
{"sequenceContent": "CCTAGCGGGCCAATCTGGGTCACTCAAGGCTTGA", "experimentalTarget": "LXRa homodimer (NR concentration 270 nM)", "PBM binding z-score": -0.728}

Lookup: Return reported PBM binding z-score for target or system LXRa homodimer (NR concentration 270 nM), item `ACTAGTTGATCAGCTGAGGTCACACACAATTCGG` .
Found: 1.91

Lookup: Return reported PBM binding z-score for target or system LXRa homodimer (NR concentration 270 nM), item `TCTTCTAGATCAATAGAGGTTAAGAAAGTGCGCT` .
Found: 0.664

Lookup: Return reported PBM binding z-score for target or system LXRa homodimer (NR concentration 270 nM), item `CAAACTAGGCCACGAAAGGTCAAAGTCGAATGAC` .
Found: 5.85

Lookup: Return reported PBM binding z-score for target or system LXRa homodimer (NR concentration 270 nM), item `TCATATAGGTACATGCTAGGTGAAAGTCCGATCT` .
Found: 0.242

Lookup: Return reported PBM binding z-score for target or system LXRa homodimer (NR concentration 270 nM), item `CGTCCAAGGTCAAGGACAGTGAAAGAGACTCGAA` .
Found: 0.198

Lookup: Return reported PBM binding z-score for target or system LXRa homodimer (NR concentration 270 nM), item `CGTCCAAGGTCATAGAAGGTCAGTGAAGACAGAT` .
Found: 4.12

Lookup: Return reported PBM binding z-score for target or system LXRa homodimer (NR concentration 270 nM), item `TCATATAGGTAATACCGGTGAAAGTCGGCATCTA` .
Found: 0.169

Lookup: Return reported PBM binding z-score for target or system LXRa homodimer (NR concentration 270 nM), item `TAGCTTAGGTCATTGGGCCAGTATAGTACGCATC` .
Found: 1.12

---

tested on: PPARg:RXRa 30nM:10nM, anti-RXR (NR concentration 30 nM, RXRa partner concentration 10 nM); assay: PBM binding z-score (relative to random genomic background probes); higher = stronger binding; sequences stand for … in GC…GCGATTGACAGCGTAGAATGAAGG
outcomeMeasure: PBM binding z-score
Kindly provide the number alone.

{"sequenceContent": "TCTTGTAGATAAGCAGGTTAAGAAAGCTGGCCAA", "PBM binding z-score": 2.41}

Lookup: Input `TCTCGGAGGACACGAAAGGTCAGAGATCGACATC` , output reported PBM binding z-score.
Found: 2.97

Lookup: Input `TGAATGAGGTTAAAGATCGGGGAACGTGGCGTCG` , output reported PBM binding z-score.
Found: 3.66

Lookup: Input `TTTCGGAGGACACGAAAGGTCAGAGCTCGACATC` , output reported PBM binding z-score.
Found: 0.718

Lookup: Input `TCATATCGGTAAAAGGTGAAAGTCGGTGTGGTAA` , output reported PBM binding z-score.
Found: 6.64

Lookup: Input `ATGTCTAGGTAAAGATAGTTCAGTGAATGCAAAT` , output reported PBM binding z-score.
Found: 0.312

Lookup: Input `GATACAGGGTCAAGACCAGAGTACGCGTATTGAT` , output reported PBM binding z-score.
Found: 1.75

Lookup: Input `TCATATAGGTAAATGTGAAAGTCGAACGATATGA` , output reported PBM binding z-score.
Found: 3.79

Lookup: Input `ACTATTAGCTGAGACGAGGGCAACCGATAGGTTG` , output reported PBM binding z-score.
Found: -0.205

Lookup: Input `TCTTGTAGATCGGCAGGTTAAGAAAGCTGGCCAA` , output reported PBM binding z-score.
Found: 2.42

Lookup: Input `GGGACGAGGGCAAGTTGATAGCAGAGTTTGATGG` , output reported PBM binding z-score.
Found: 0.448

Lookup: Input `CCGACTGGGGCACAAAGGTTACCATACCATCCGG` , output reported PBM binding z-score.
Found: 2.72

---

PBM binding z-score reference
system: RXRa homodimer (NR concentration 180 nM); assay: PBM binding z-score (relative to random genomic background probes); higher = stronger binding; sequences stand for … in GC…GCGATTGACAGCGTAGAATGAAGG
Kindly provide the number alone.

{"sequenceContent": "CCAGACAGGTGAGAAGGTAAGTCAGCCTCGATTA", "PBM binding z-score": 0.216}

Consider now this further sequence.
Lookup: Input `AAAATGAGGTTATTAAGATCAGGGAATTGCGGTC` , output reported PBM binding z-score.
Found: 1.78

---

test system: RARb homodimer (NR concentration 270 nM); experiment: PBM binding z-score (relative to random genomic background probes); higher = stronger binding; sequences stand for … in GC…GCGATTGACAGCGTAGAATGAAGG
outcomeMeasure: PBM binding z-score
Kindly provide the number alone.

For orientation, consider the following solved cases.
{"sequenceContent": "CCTTACCGGTCACTCCAGGTTATAGCATCGGAGT", "PBM binding z-score": 2.64}
{"sequenceContent": "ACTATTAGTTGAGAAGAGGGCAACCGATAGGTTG", "PBM binding z-score": 1.43}
{"sequenceContent": "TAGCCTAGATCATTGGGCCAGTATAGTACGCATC", "PBM binding z-score": -0.608}

Lookup: Input `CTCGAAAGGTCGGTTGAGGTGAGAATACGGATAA` , output reported PBM binding z-score.
Found: 2.21

Lookup: Input `GATACAGGGTCAAGGCCAGACTACGCGTATTGAT` , output reported PBM binding z-score.
Found: 3.74

Lookup: Input `CGCGAAAGGTCGTGCTCAGGTGAGTATACCAAAC` , output reported PBM binding z-score.
Found: 3.1

Lookup: Input `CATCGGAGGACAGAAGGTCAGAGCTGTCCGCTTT` , output reported PBM binding z-score.
Found: 3.44

Lookup: Input `ACTATTAGTTGACTTAGGGCAAGCGATACGACGC` , output reported PBM binding z-score.
Found: 0.617

Lookup: Input `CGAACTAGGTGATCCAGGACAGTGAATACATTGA` , output reported PBM binding z-score.
Found: 0.12

Lookup: Input `TCTATTAGTTGATAAGGGCAACCGAAACAGCGGA` , output reported PBM binding z-score.
Found: 1.39

Lookup: Input `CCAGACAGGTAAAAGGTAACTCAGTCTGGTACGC` , output reported PBM binding z-score.
Found: 0.19

Lookup: Input `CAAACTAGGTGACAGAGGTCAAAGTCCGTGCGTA` , output reported PBM binding z-score.
Found: 4.61

---

system: RARg:RXRa (NR concentration 270 nM, RXRa partner concentration 90 nM); assay: PBM binding z-score (relative to random genomic background probes); higher = stronger binding; sequences stand for … in GC…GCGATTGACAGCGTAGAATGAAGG
Lab note: anything with PBM binding z-score at or over 2 counts as Satisfied; the rest go in Not satisfied.

{"sequenceContent": "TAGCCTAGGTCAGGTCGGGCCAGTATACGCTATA", "class": "Satisfied"}
{"sequenceContent": "CTCGAGAGGTCGTGCTCAGGTGAGTATACCAAAC", "class": "Satisfied"}
{"sequenceContent": "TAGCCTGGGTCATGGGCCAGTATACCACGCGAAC", "class": "Satisfied"}
{"sequenceContent": "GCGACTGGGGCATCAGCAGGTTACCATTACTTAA", "class": "Not satisfied"}
{"sequenceContent": "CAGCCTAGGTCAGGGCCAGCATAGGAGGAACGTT", "class": "Satisfied"}
{"sequenceContent": "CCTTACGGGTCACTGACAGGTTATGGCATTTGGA", "class": "Satisfied"}
{"sequenceContent": "ATCTCTAGGTAAAAATAGTTCAGTGAATGCAAAT", "class": "Not satisfied"}
{"sequenceContent": "ATCTCTAGGTAAAGTTCAGAGAAAGATCGATAGA", "class": "Satisfied"}
{"sequenceContent": "ACAGACAGGTTATGAAGGTAACTCAGGCTATCAT", "class": "Not satisfied"}
{"sequenceContent": "TCTATTAGTCGAAGGGCAACCGACGAGTCCGTTT", "class": "Not satisfied"}

Lookup: Could you verify whether the entry `CTACCAAGGTGAACAAGGTCGATGATTACTATTC` shows PBM binding z-score of no less than 2?
Found: Not satisfied

Lookup: Could you verify whether the entry `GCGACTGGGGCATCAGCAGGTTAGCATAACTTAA` shows PBM binding z-score of no less than 2?
Found: Not satisfied

Lookup: Could you verify whether the entry `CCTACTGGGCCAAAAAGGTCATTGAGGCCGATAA` shows PBM binding z-score of no less than 2?
Found: Satisfied

Lookup: Could you verify whether the entry `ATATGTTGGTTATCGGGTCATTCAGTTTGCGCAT` shows PBM binding z-score of no less than 2?
Found: Satisfied

Lookup: Could you verify whether the entry `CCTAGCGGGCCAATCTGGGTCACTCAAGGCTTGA` shows PBM binding z-score of no less than 2?
Found: Not satisfied

Lookup: Could you verify whether the entry `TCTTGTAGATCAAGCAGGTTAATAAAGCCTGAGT` shows PBM binding z-score of no less than 2?
Found: Not satisfied

Lookup: Could you verify whether the entry `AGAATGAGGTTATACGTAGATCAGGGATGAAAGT` shows PBM binding z-score of no less than 2?
Found: Not satisfied

Lookup: Could you verify whether the entry `GCAGACAGGTGAAACGCAGGCAACTCAGGGTGGC` shows PBM binding z-score of no less than 2?
Found: Not satisfied

Lookup: Could you verify whether the entry `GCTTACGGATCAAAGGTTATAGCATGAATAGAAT` shows PBM binding z-score of no less than 2?
Found: Not satisfied

Lookup: Could you verify whether the entry `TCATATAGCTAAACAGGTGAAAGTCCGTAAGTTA` shows PBM binding z-score of no less than 2?
Found: Not satisfied

Lookup: Could you verify whether the entry `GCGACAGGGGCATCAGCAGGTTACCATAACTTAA` shows PBM binding z-score of no less than 2?
Found: Not satisfied

Lookup: Could you verify whether the entry `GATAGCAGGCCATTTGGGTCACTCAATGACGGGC` shows PBM binding z-score of no less than 2?
Found: Not satisfied

Lookup: Could you verify whether the entry `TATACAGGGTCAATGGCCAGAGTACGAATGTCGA` shows PBM binding z-score of no less than 2?
Found: Satisfied

Lookup: Could you verify whether the entry `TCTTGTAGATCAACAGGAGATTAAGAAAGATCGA` shows PBM binding z-score of no less than 2?
Found: Not satisfied

Lookup: Could you verify whether the entry `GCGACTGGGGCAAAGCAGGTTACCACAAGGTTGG` shows PBM binding z-score of no less than 2?
Found: Not satisfied

Each recorded value in this set is attributed to the supplement of paper PMC6555819.
